- Test system: RPMI-8226
- protocol.notes: NCI tumour cell line growth inhibition, 48 h
Calls of active or inactive are those of the source. Rule as the data show it: active = GI50 up to about 1.1 µM and inactive = higher.
Your answer must be one of the following: t (active), f (inactive)

Solved entries (count: 8):
molecule=CCCNC1=C(C)C(=O)C2=C(C1=O)[C@H](COC(N)=O)[C@]1(OC)[C@@H]3N[C@@H]3CN21 class_name=f
molecule=O=c1c(C(c2ccc(Cl)cc2)c2c(O)c3ccccc3n(-c3ccccc3)c2=O)c(O)c2ccccc2n1-c1ccccc1 class_name=f
molecule=CN(C)/C=N/c1ccc2nonc2c1 class_name=f
molecule=O=C(O)CCC(=O)c1ccc(Cl)cc1 class_name=f
molecule=CCOC(=O)c1ccc(/N=c2/[nH]c3ccccc3s/c2=N/c2ccc(C(=O)OCC)cc2)cc1 class_name=f
molecule=CC(=O)Nc1cccc(/N=N/N(C)C)c1 class_name=f
molecule=O=C1/C(=C/c2ccccc2)NC(=S)N1CN1CCCCC1 class_name=f
molecule="CN(C)CCCC1c2ccccc2Oc2ccc(C(F)(F)F)cc21 (stereo not given)" class_name=f

Query :: For this molecule, state the assay outcome: CC(=O)NC(CC(C)C)C(=O)NC(CC(C)C)C(=O)NC(C=O)CCCNC(=N)N (stereo not given)
Result :: f

Query :: For this molecule, state the assay outcome: `CC1=N/C(=C\c2cccc3ccccc23)C(=O)O1`
Result :: f

Query :: For this molecule, state the assay outcome: CC1=C/C(=N\NC(N)=S)C(C(O)(C(F)(F)F)C(F)(F)F)C(C)(C)C1 (stereo not given)
Result :: f
